# experiment_description: ATG_E_Box_CIS: Attagene CIS-FACTORIAL HepG2 Assay for human Enhancer Box (E-box) (AID 2282936)
# stated_conditions: HepG2 E-box cis-reporter transcription, actives raise or lower the signal
Activity calls are given as the source filed them. How the source made its calls: active means hit-call score of the fitted dose curve at least 0.9, where 1 is the maximum; inactive means score below 0.9.
measured_property: outcome

Solved cases below.
// query So what's the measured outcome for this one? O=C1NC2NC(=O)NC2N1 (configuration not stated)
// result inactive

// query So what's the measured outcome for this one? CCc1ncc(C)[nH]1
// result inactive

// query So what's the measured outcome for this one? CC(=O)CC(=O)Nc1ccccc1
// result inactive

// query So what's the measured outcome for this one? CS(=O)(=O)c1ccc(C2=C(c3ccccc3)C(=O)OC2)cc1
// result inactive

// query So what's the measured outcome for this one? CC(=O)c1ccccn1
// result inactive

// query So what's the measured outcome for this one? C/C=C(\C)C(=O)OCCc1ccccc1
// result inactive

// query So what's the measured outcome for this one? CCc1ccc(O)c(OC)c1
// result inactive

// query So what's the measured outcome for this one? COCCOCCOCCO
// result inactive

More entries:
// query So what's the measured outcome for this one? O=C(Nc1ccc([N+](=O)[O-])cc1)Nc1ccc([N+](=O)[O-])cc1 (tested in a mixture with another compound)
// result inactive

// query So what's the measured outcome for this one? CCN(CCC#N)c1ccc(N=Nc2ccc([N+](=O)[O-])cc2)cc1
// result inactive

// query So what's the measured outcome for this one? OCc1ccc(Cl)cc1Cl
// result inactive

// query So what's the measured outcome for this one? C[C@@H]1CCN(C(=O)[C@H](CCCN=C(N)N)NS(=O)(=O)c2cccc3c2NC[C@H](C)C3)[C@@H](C(=O)O)C1
// result inactive

// query So what's the measured outcome for this one? CC(C)CCCCCCCCCCCCCCC(=O)O
// result inactive

// query So what's the measured outcome for this one? Cc1cc(C)nc(NS(=O)(=O)c2ccc(N)cc2)n1
// result inactive

// query So what's the measured outcome for this one? Cc1cc(CCC(=O)OCCOCCOCCOC(=O)CCc2cc(C)c(O)c(C(C)(C)C)c2)cc(C(C)(C)C)c1O
// result inactive

###

# experiment_description: CCTE_Deisenroth_AIME_384WELL_CTox_Active: Cytotoxicity Assessment (CTOX) in CCTE's 384-well Estrogen Receptor Transactivation Assay with AIME metabolic competence (metabolism positive), Deisenroth Lab (AID 2284037);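 further: chemicals first conditioned 2 h by alginate-bound induced rat liver S9 before cells; activity means signal loss indicating cell death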
Inconclusive results are not listed. Active and inactive are the calls of the source. How the source made its calls: active means hit-call score of the fitted dose curve at least 0.9, where 1 is the maximum; inconclusive means response in the unintended direction; inactive means score below 0.9.
Parameter call: string, one of yes (1) (active), no (0) (inactive)

Record excerpt, results attached:
// query Identify the outcome logged in this assay for the molecule shown: CCCCCCCCSCCO
// result no (0)

// query Identify the outcome logged in this assay for the molecule shown: CCCCCCCCCCCC(=O)OCC(O)CO (stereo not drawn)
// result yes (1)

// query Identify the outcome logged in this assay for the molecule shown: O=C1OC(=O)c2c(Cl)c(Cl)c(Cl)c(Cl)c21
// result no (0)

// query Identify the outcome logged in this assay for the molecule shown: Nc1ccc(N)c2c1C(=O)c1ccccc1C2=O
// result yes (1)

// query Identify the outcome logged in this assay for the molecule shown: Nc1ccc2cc(S(=O)(=O)O)cc(O)c2c1N=Nc1ccccc1C(F)(F)F
// result yes (1)

More entries:
// query Identify the outcome logged in this assay for the molecule shown: Oc1ccc2cc(SSc3ccc4cc(O)ccc4c3)ccc2c1
// result no (0)

// query Identify the outcome logged in this assay for the molecule shown: CCCCCCC(C)(C)S
// result no (0)

// query Identify the outcome logged in this assay for the molecule shown: O=P(O)(O)O
// result no (0)

// query Identify the outcome logged in this assay for the molecule shown: O=[N+]([O-])c1ccc(O)cc1C(F)(F)F
// result yes (1)

// query Identify the outcome logged in this assay for the molecule shown: CC(C)CCCCCCc1ccc(OCCOCCO)cc1
// result no (0)

// query Identify the outcome logged in this assay for the molecule shown: CCCCCCCCCCCCCCN(CCO)CCO
// result no (0)

// query Identify the outcome logged in this assay for the molecule shown: CCNCCO
// result no (0)

// query Identify the outcome logged in this assay for the molecule shown: CC(C)CC(C)CC(O)CC(C)C (stereo not drawn)
// result no (0)

###

# target_system: human Peripheral-type Benzodiazepine Receptor (PBR), TSPO (gene 706)
# experiment_description: NVS_MP_hPBR: NovaScreen (NVS) Membrane Protein Assay for human Peripheral-type Benzodiazepine Receptor (PBR) (AID 2283331);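 further: hits reduce radioligand binding relative to DMSO baseline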
Records with an inconclusive call do not appear. The source made the active and inactive calls. The calls were made as follows: active = hit-call score of the fitted dose curve at least 0.9, where 1 is the maximum; inconclusive = response in the unintended direction; inactive = score below 0.9.
Parameter call: string, one of active, inactive

// query Identify the outcome logged in this assay for the molecule shown: c1ccc(Oc2ccccc2)cc1
// result inactive

// query Identify the outcome logged in this assay for the molecule shown: CCCCN(CCCC)C(=O)N(CCCC)CCCC
// result active

// query Identify the outcome logged in this assay for the molecule shown: Cc1cc(CCC(=O)OCCOCCOCCOC(=O)CCc2cc(C)c(O)c(C(C)(C)C)c2)cc(C(C)(C)C)c1O
// result active

// query Identify the outcome logged in this assay for the molecule shown: COc1ccc(N=Nc2cc(C)c(N=Nc3ccc(S(=O)(=O)O)cc3)cc2OC)cc1
// result active

// query Identify the outcome logged in this assay for the molecule shown: CS(=O)(=O)OCCCCOS(C)(=O)=O
// result inactive

// query Identify the outcome logged in this assay for the molecule shown: CN(C)C(=O)Nc1ccc(Oc2ccc(Cl)cc2)cc1
// result active

// query Identify the outcome logged in this assay for the molecule shown: CCCCC(CC)COC(=O)c1ccc(O)cc1 (stereo not given)
// result active

// query Identify the outcome logged in this assay for the molecule shown: Cc1ccc(S(=O)(=O)Oc2ccc(N=Nc3ccc(-c4ccc(N=Nc5c(O)ccc6cc(S(=O)(=O)O)cc(S(=O)(=O)O)c56)c(C)c4)cc3C)cc2)cc1
// result active

// query Identify the outcome logged in this assay for the molecule shown: Cc1cc(=O)oc2cc(N(C)C)ccc12
// result active

// query Identify the outcome logged in this assay for the molecule shown: Nc1ccc2cc(S(=O)(=O)O)cc(O)c2c1N=Nc1ccccc1C(F)(F)F
// result active

###

# target_system: X-box-binding protein 1 (Homo sapiens)
# experiment_description: ATG_Xbp1_CIS: Attagene CIS-FACTORIAL HepG2 Assay for human X-box Binding Protein 1 (XBP1) (AID 2282972)
# stated_conditions: HepG2 XBP1 cis-element reporter, Attagene multiplex; actives raise or lower the signal
Active and inactive are the calls of the source. Rule for the calls: active = hit-call score of the fitted dose curve at least 0.9, where 1 is the maximum; inactive = score below 0.9.
Parameter call: string, one of active, inactive

Record excerpt, results attached:
// query Identify the outcome logged in this assay for the molecule shown: Clc1ccc(C(c2ccccc2Cl)C(Cl)Cl)cc1 (stereo unspecified)
// result inactive

// query Identify the outcome logged in this assay for the molecule shown: CCCCCCCC(=O)OCC(O)CO (stereo unspecified)
// result inactive

// query Identify the outcome logged in this assay for the molecule shown: COc1ccc(N=Nc2cc(C)c(N=Nc3ccc(S(=O)(=O)O)cc3)cc2OC)cc1
// result inactive

// query Identify the outcome logged in this assay for the molecule shown: OC[C@H]1O[C@@H](Oc2ccc(O)cc2)[C@H](O)[C@@H](O)[C@@H]1O
// result inactive

// query Identify the outcome logged in this assay for the molecule shown: CCC(C)c1cc([N+](=O)[O-])cc([N+](=O)[O-])c1OC(=O)OC(C)C (stereo unspecified)
// result active

As a next step, examine the molecule that follows.
// query Identify the outcome logged in this assay for the molecule shown: CC(=O)OCCCc1ccccc1
// result inactive

###

# Read-out: Transforming growth factor beta 1 (TGFb1), TGFB1 (gene 7040)
# experiment_description: BSK_KF3CT_TGFb1: BioMAP Diversity Plus: KF3CT Assay for Transforming growth factor beta 1 (TGFb1) Biomarker Activity (AID 2283072)
# stated_conditions: primary human keratinocytes with fibroblasts; actives raise or lower the signal
Calls of active or inactive are those of the source. Rule for the calls: active = hit-call score of the fitted dose curve at least 0.9, where 1 is the maximum; inactive = score below 0.9.
Parameter call: string, one of active, inactive

// query Identify the outcome logged in this assay for the compound shown: O=C1c2ccccc2C(=O)c2c(O)ccc(O)c21
// result inactive

// query Identify the outcome logged in this assay for the compound shown: CC1(C)C2=CCCC(C)(C)[C@]23CC[C@H]1C3
// result active

// query Identify the outcome logged in this assay for the compound shown: COc1ccc(CCN2CCC(Nc3nc4ccccc4n3Cc3ccc(F)cc3)CC2)cc1
// result inactive

// query Identify the outcome logged in this assay for the compound shown: CCN(CC)C(=O)N(CC)CC
// result inactive

// query Identify the outcome logged in this assay for the compound shown: CC(C=O)Cc1ccc(C(C)(C)C)cc1 (configuration not stated)
// result inactive

More entries:
// query Identify the outcome logged in this assay for the compound shown: IC(I)I
// result inactive

// query Identify the outcome logged in this assay for the compound shown: CC(=O)C1(C)CC2=C(CCCC2(C)C)CC1C (configuration not stated)
// result inactive

// query Identify the outcome logged in this assay for the compound shown: CCCCCCCCCCCCCCCC(=O)OC/C=C(C)/C=C/C=C(C)/C=C/C1=C(C)CCCC1(C)C
// result active

// query Identify the outcome logged in this assay for the compound shown: COc1ccc(OC)c(N=Nc2c(O)ccc3ccccc23)c1
// result active

// query Identify the outcome logged in this assay for the compound shown: C=C(C)C(=O)OCCOCCOCCOCCOC(=O)C(=C)C
// result inactive

// query Identify the outcome logged in this assay for the compound shown: CN(c1nccc(=O)[nH]1)C1CCN(c2nc3ccccc3n2Cc2ccc(F)cc2)CC1
// result inactive

// query Identify the outcome logged in this assay for the compound shown: CCCCOC(=O)CCCCCCCC(=O)OCCCC
// result inactive

Origin of values: PubChem BioAssay (EPA / NIEHS)
